biological target: rhinovirus 3C protease (HRV-2) (Human rhinovirus 2); construct: Recombinant rhinovirus 3C proteases; made in house; assay: Inhibition of rhinovirus 3C protease activity (FRET assay), HRV-2; format: biochemical; details: read-out: Protease Inhibition kobs/I
Sequence (P04936 1508-1690): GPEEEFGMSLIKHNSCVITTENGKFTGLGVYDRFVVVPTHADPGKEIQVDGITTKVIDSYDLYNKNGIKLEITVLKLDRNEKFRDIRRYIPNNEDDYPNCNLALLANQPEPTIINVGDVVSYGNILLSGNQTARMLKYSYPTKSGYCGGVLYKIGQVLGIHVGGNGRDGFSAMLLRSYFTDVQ
Catalogue of kinact/KI readings, one per entry.
Numeric only. Scale: M⁻¹ s⁻¹

# value lookup — system rhinovirus 3C protease (HRV-2) (Human rhinovirus 2), readout kinact/KI, item CCOC(=O)/C=C/[C@H](C[C@@H]1CCNC1=O)NC(=O)c1ccc2ccc(Br)cc2c1 [Compound 53]
385

***
# value lookup — system rhinovirus 3C protease (HRV-2) (Human rhinovirus 2), readout kinact/KI, item CCOC(=O)/C=C/[C@H](C[C@@H]1CCNC1=O)NC(=O)C1=Cc2cc(Cl)ccc2OC1 [Compound 44]
385

Next molecule: CCOC(=O)/C=C/[C@H](C[C@@H]1CCNC1=O)NC(=O)C1=Cc2cc(Br)ccc2OC1 [Compound 52]
372

Next molecule: CCOC(=O)/C=C/[C@H](C[C@@H]1CCNC1=O)NC(=O)c1ccc2ccccc2c1 [Compound 1]
110

* * *

target: rhinovirus 3C protease from HRV serotype-14 (Human rhinovirus 14, UniProt P03303); construct: Recombinant rhinovirus 3C proteases; made in house; assay: Inhibition of rhinovirus 3C protease activity (FRET assay), HRV-14; format: biochemical; settings: read-out: Protease Inhibition kobs/I
Sequence (P03303 1538-1719): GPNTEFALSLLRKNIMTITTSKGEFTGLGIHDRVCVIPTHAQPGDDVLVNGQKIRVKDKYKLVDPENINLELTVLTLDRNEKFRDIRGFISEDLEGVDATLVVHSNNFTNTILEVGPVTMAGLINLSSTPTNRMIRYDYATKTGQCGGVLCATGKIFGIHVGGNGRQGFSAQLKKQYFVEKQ
Property: kinact/KI (M⁻¹ s⁻¹)
Numeric only. Scale: M⁻¹ s⁻¹

Can you share its kinact/KI? I mean this compound: CCOC(=O)/C=C/[C@H](C[C@@H]1CCNC1=O)NC(=O)c1ccc2ccccc2c1 [Compound 1]
1090

***
Can you share its kinact/KI? I mean this compound: CCOC(=O)/C=C/[C@H](C[C@@H]1CCNC1=O)NC(=O)c1cc2cc(CC)ccc2[nH]1 [Compound 8]
980

Next compound: CCOC(=O)/C=C/[C@H](C[C@@H]1CCNC1=O)NC(=O)Nc1cc(OC)cc(OC)c1 [Compound 57]
388

Next compound: CCOC(=O)/C=C/[C@H](C[C@@H]1CCNC1=O)NC(=O)C1=Cc2ccccc2OC1 [Compound 67]
886

* * *

Target: rhinovirus 3C protease from HRV serotype-14 (Human rhinovirus 14)
Construct: Recombinant rhinovirus 3C proteases; made in house
Assay: Inhibition of rhinovirus 3C protease activity (FRET assay), HRV-14
Type: biochemical
Details: HRV-14 3C protease; progress curves, enzyme start; read-out: Protease Inhibition kobs/I
Protocol: Stock solutions (50 mM, in DMSO) of various compounds were prepared; dilutions were in the same solvent. […] RVP activity was measured in the fluorescence resonance energy transfer assay. […] In the uncleaved peptide, the EDANS fluorescence was quenched by the proximal DABCYL group. When the peptide was cleaved, the quenching was relieved, and activity was measured as an increase in fluorescence signal. […]
# kinact/KI binned as bottom end = under 80 M⁻¹ s⁻¹, midrange = from 80 M⁻¹ s⁻¹ up to 200 M⁻¹ s⁻¹, top end = 200 M⁻¹ s⁻¹ and over

Record CCOC(=O)/C=C/[C@H](CCC(N)=O)NC(=O)c1ccccc1CCc1ccccc1 — which class?
bottom end

Next molecule: CCOC(=O)/C=C/[C@H](C[C@@H]1CCNC1=O)NC(=O)COc1cccc(OC)c1
bottom end

Next molecule: CCOC(=O)/C=C/[C@H](CCC(N)=O)NC(=O)c1cc2ccccc2[nH]1
bottom end

Next molecule: CCOC(=O)/C=C/[C@H](C[C@@H]1CCNC1=O)NC(=O)c1ccc2ccc(O)cc2c1
top end

Next molecule: CCOC(=O)/C=C/[C@H](CCC(N)=O)NC(=O)c1ccccc1
bottom end

Next molecule: CCOC(=O)/C=C/[C@H](C[C@@H]1CCNC1=O)NC(=O)c1cc2ccccc2[nH]1
top end

Next molecule: CCOC(=O)/C=C/[C@H](CCC(N)=O)NC(=O)c1ccc2ccccc2c1
midrange

Next molecule: CCOC(=O)/C=C/[C@H](C[C@@H]1CCNC1=O)NC(=O)Cc1cccc(Cl)c1
bottom end

Next molecule: CCOC(=O)/C=C/[C@H](C[C@@H]1CCNC1=O)NC(=O)c1cc2cc(OC)c(OCc3ccccc3)cc2[nH]1
top end

Next molecule: CCOC(=O)/C=C/[C@H](C[C@@H]1CCNC1=O)NC(=O)C1CSC(c2ccccc2)N1C(C)=O (stereo partly shown)
midrange

***
Record CCOC(=O)/C=C/[C@H](CCC(N)=O)NC(=O)c1cc2ccccc2s1 — which class?
midrange

Next molecule: CCOC(=O)/C=C/[C@H](C[C@@H]1CCNC1=O)NC(=O)c1cc2ccccc2cc1NC(C)=O
top end

Next molecule: CCOC(=O)/C=C/[C@H](CCC(N)=O)NC(=O)c1cc(C(C)(C)C)nn1Cc1ccccc1
bottom end

Next molecule: CCOC(=O)/C=C/[C@H](C[C@@H]1CCNC1=O)NC(=O)/C=C/c1ccc(OC)cc1
top end

Next molecule: CCOC(=O)/C=C/[C@H](C[C@@H]1CCNC1=O)NC(=O)c1cc2cc(Br)ccc2o1
top end

* * *

assay: Cytotoxicity in mock-infected H1-HeLa cells (XTT); assay type: cell-based; conditions: human, two days, read-out: Toxicity CC50
Catalogue of CC50 at 2 days readings, one per entry.

These recorded examples may help you get a feel for the data.
Can you share its CC50 at 2 days? I mean this molecule: CCOC(=O)/C=C/[C@H](CCC(N)=O)NC(=O)c1ccc2ccccc2n1 [Compound 31]
> 100 µM

Next molecule: CCOC(=O)/C=C/[C@H](CCC(N)=O)NC(=O)c1ccccc1COC(=O)c1ccccc1 [Compound 36]
> 100 µM

Next molecule: CCOC(=O)/C=C/[C@H](C[C@@H]1CCNC1=O)NC(=O)C1=Cc2ccccc2OC1 [Compound 67]
> 100 µM

Next molecule: CCOC(=O)/C=C/[C@H](C[C@@H]1CCNC1=O)NC(=O)c1cc2cc(Br)ccc2n1C [Compound 21]
17.8 µM

***
Can you share its CC50 at 2 days? I mean this molecule: CCOC(=O)/C=C/[C@H](C[C@@H]1CCNC1=O)NC(=O)Nc1cc(OC)cc(OC)c1 [Compound 57]
> 10 µM

Next molecule: CCOC(=O)/C=C/[C@H](CCC(N)=O)NC(=O)c1cc(C(C)(C)C)nn1Cc1ccccc1 [Compound 33]
> 100 µM

Next molecule: CCOC(=O)/C=C/[C@H](C[C@@H]1CCNC1=O)NC(=O)c1cc2cc(OC)c(OC)cc2n1C [Compound 19]
> 10 µM

Next molecule: CCOC(=O)/C=C/[C@H](C[C@@H]1CCNC1=O)NC(=O)c1cc2cc(OC)ccc2[nH]1 [Compound 41]
> 100 µM

* * *

molecular target: rhinovirus 3C protease from HRV serotype-14 (Human rhinovirus 14); construct: Recombinant rhinovirus 3C proteases; made in house; experiment: Inhibition of rhinovirus 3C protease activity (FRET assay), HRV-14; assay type: biochemical; conditions: HRV-14 3C protease; progress curves, enzyme start; read-out: Protease Inhibition kobs/I
Label yes (1) when kinact/KI is at or above 80 M⁻¹ s⁻¹; anything below gets no (0).

Example entries begin here.
Hi team, for CCOC(=O)/C=C/[C@H](C[C@@H]1CCNC1=O)NC(=O)c1ccc2cc(O)ccc2c1 , is the recorded kinact/KI at or above 80 M⁻¹ s⁻¹?
yes (1)

Next molecule: CCOC(=O)/C=C/[C@H](CCC(N)=O)NC(=O)c1cnc2ccccc2n1
no (0)

Next molecule: CCOC(=O)/C=C/[C@H](C[C@@H]1CCNC1=O)NC(=O)COc1cccc(Cl)c1
yes (1)

Next molecule: CCOC(=O)/C=C/[C@H](CCC(N)=O)NC(=O)c1ccccc1COC(=O)c1ccccc1
no (0)

Next molecule: CCOC(=O)/C=C/[C@H](CCC(N)=O)NC(=O)/C=C/c1cccc(Br)c1
yes (1)

Next molecule: CCOC(=O)/C=C/[C@H](C[C@@H]1CCNC1=O)NC(=O)c1ccc2cc(OC)c(OC)cc2c1
yes (1)

Next molecule: CCOC(=O)/C=C/[C@H](C[C@@H]1CCNC1=O)NC(=O)/C=C/c1ccc(OC)c(OC)c1
yes (1)

Next molecule: CCOC(=O)/C=C/[C@H](C[C@@H]1CCNC1=O)NC(=O)/C=C/C(=O)Nc1c(C)cc(C)cc1C
yes (1)

***
Hi team, for CCOC(=O)/C=C/[C@H](C[C@@H]1CCNC1=O)NC(=O)c1ccc(C(=O)OC)cc1 , is the recorded kinact/KI at or above 80 M⁻¹ s⁻¹?
yes (1)

Next molecule: CCOC(=O)/C=C/[C@H](CCC(N)=O)NC(=O)c1ccc(Cl)c(Cl)c1
no (0)

Next molecule: CCOC(=O)/C=C/[C@H](C[C@@H]1CCNC1=O)NC(=O)c1cc2cccc([N+](=O)[O-])c2[nH]1
yes (1)

Next molecule: CCOC(=O)/C=C/[C@H](CCC(N)=O)NC(=O)c1ccc(N(C)C)cc1
no (0)

Next molecule: CCOC(=O)/C=C/[C@H](C[C@@H]1CCNC1=O)NC(=O)Nc1ccccc1Oc1ccccc1
yes (1)

Next molecule: CCOC(=O)/C=C/[C@H](CCC(N)=O)NC(=O)c1nn(-c2ccccc2)nc1C
yes (1)

Next molecule: CCOC(=O)/C=C/[C@H](CCC(N)=O)NC(=O)/C=C/c1ccccc1
no (0)

src = patent US6989384B2
